System: HepG2
Procedure Text: Cytotoxicity against human HepG2 cells assessed as reduction in cell viability incubated for 48 hrs by MTS assay
Format: toxicity, cell-based
Measurement Conditions: hepg2
Test Readout: EC50 (µM)

> print(dat)
                                smiles.code  target.or.system  unit.string   val
1  CCN1CCN(Cc2ccc(NC(=O)c3cc(Cl)cc(NC(=O)c4cccnc4)c3)cc2C(F)(F)F)CC1             HepG2           µM  10.4
2  CCN1CCN(Cc2ccc(NC(=O)c3cc(Cl)cc(NC(=O)c4cncc(-c5ccc(C#N)cc5)c4)c3)cc2C(F)(F)F)CC1             HepG2           µM  1.46
3  CCN1CCN(Cc2ccc(NC(=O)c3cc(Cl)cc(NC(=O)c4cncc(-c5cccs5)c4)c3)cc2C(F)(F)F)CC1             HepG2           µM  2.59
4  CCN1CCN(Cc2ccc(NC(=O)c3cc(Cl)cc(Nc4cncc(-c5cccs5)c4)c3)cc2C(F)(F)F)CC1             HepG2           µM  3.62
5  CCN1CCN(Cc2ccc(NC(=O)c3cc(Cl)cc(NC(=O)c4cncc(-c5cncs5)c4)c3)cc2C(F)(F)F)CC1             HepG2           µM  6.08
6  CCN1CCN(Cc2ccc(NC(=O)c3cc(Cl)cc(NC(=O)c4ccccc4)c3)cc2C(F)(F)F)CC1             HepG2           µM  7.24
7  CCN1CCN(Cc2ccc(NC(=O)c3cc(NC(=O)c4cncc(-c5cccs5)c4)cc(C(F)(F)F)c3)cc2C(F)(F)F)CC1             HepG2           µM  2.85
8  CCN1CCN(Cc2ccc(NC(=O)c3cc(Cl)cc(NC(=O)c4cccc(-c5cccs5)c4)c3)cc2C(F)(F)F)CC1             HepG2           µM  5.46

----------
Procedure Text: Metabolic stability in mouse liver microsomes assessed as half life
Type: ADME, Liver cells
A collection of compounds and their measured t1/2
Test Readout: t1/2

> print(dat)
                                smiles.code       val
1  CCN1CCN(Cc2ccc(NC(=O)c3cc(Cl)cc(NC(=O)c4cncc(-c5cccs5)c4)c3)cc2C(F)(F)F)CC1  79.5 min
2  CCN1CCN(Cc2ccc(NC(=O)c3cc(Cl)cc(NC(=O)c4cncc(-c5cccs5)c4)c3)cc2)CC1  65.3 min
3  CCN1CCN(Cc2ccc(NC(=O)c3cc(Cl)cc(NC(=O)c4cccnc4)c3)cc2C(F)(F)F)CC1  15.1 min
4  CCN1CCN(Cc2ccc(NC(=O)c3cc(NC(=O)c4cncc(-c5cccs5)c4)cc(C(F)(F)F)c3)cc2C(F)(F)F)CC1  41.4 min
5  CCN1CCN(Cc2ccc(NC(=O)c3cc(Cl)cc(NC(=O)c4cncc(-c5ccccc5)c4)c3)cc2C(F)(F)F)CC1  50.2 min
6  CCN1CCN(Cc2ccc(NC(=O)c3cc(F)cc(NC(=O)c4cncc(-c5cccs5)c4)c3)cc2C(F)(F)F)CC1  32.4 min
7  CCN1CCN(Cc2ccc(NC(=O)c3cc(Cl)cc(NC(=O)c4cncc(-c5ccc(C#N)cc5)c4)c3)cc2C(F)(F)F)CC1  42.5 min
